Assayed Target: Adenosine A2 receptor (UniProt P29275+P29274)
Experiment Notes: Acidic dissociation constant(pKa) against A2 adenosine receptor of coronary artery
Type: protein assay
Reported Conditions: Canis lupus familiaris
Observed Property: pka

# Compound, Assayed Target, pka
measured = [
    ("COc1ccc(CNc2ncnc3c2ncn3[C@@H]2O[C@H](CO)[C@@H](O)[C@H]2O)cc1", "Adenosine A2 receptor (UniProt P29275+P29274)", 3.06),
    ("COc1ccccc1Nc1ncnc2c1ncn2C1O[C@H](CO)[C@@H](O)[C@H]1O (some centres undefined)", "Adenosine A2 receptor (UniProt P29275+P29274)", 2.97),
    ("COc1ccc(Nc2ncnc3c2ncn3[C@@H]2O[C@H](CO)[C@@H](O)[C@H]2O)cc1", "Adenosine A2 receptor (UniProt P29275+P29274)", 2.95),
    ("OC[C@H]1O[C@@H](n2cnc3c(NCc4ccccc4Cl)ncnc32)[C@H](O)[C@@H]1O", "Adenosine A2 receptor (UniProt P29275+P29274)", 3.06),
]

---

Assayed Target: Adenosine A2 receptor (UniProt P29275+P29274)
Reported Conditions: Canis lupus familiaris
Description: Molar potency ratio (MPR) against adenosine A2 receptor of canine coronary artery
Observed Property: MPR

Sample answers from the record:
# Molecule, Observed Property, Endpoint Result
measured = [
    ("OC[C@H]1OC(n2cnc3c(NCc4ccccc4F)ncnc32)[C@H](O)[C@@H]1O (stereo not given in full)", "MPR", 0.57),
    ("OC[C@H]1O[C@@H](n2cnc3c(NCCCc4ccccc4)ncnc32)[C@H](O)[C@@H]1O", "MPR", 0.33),
    ("OC[C@H]1OC(n2cnc3c(NCCc4ccccc4F)ncnc32)[C@H](O)[C@@H]1O (stereo not given in full)", "MPR", 1.9),
]

[1] OC[C@H]1OC(n2cnc3c(NCc4cc(Cl)ccc4Cl)ncnc32)[C@H](O)[C@@H]1O (stereo not given in full)
[2] COc1cccc(CNc2ncnc3c2ncn3C2O[C@H](CO)[C@@H](O)[C@H]2O)c1 (stereo not given in full)
Ask: Which shows the larger MPR value: 1 or 2 ? Kindly state the label of the option you pick.
Reply: 1

---

Experiment Notes: Index of hydrophobicity (k')
Assay type: ADME
Observed Property: k'

Sample answers from the record:
# Compound, Endpoint Result
measured = [
    ("OC[C@H]1OC(n2cnc3c(NC4CCc5ccccc5C4)ncnc32)[C@H](O)[C@@H]1O (some centres undefined)", 4.89),
    ("CC(Nc1ncnc2c1ncn2C1O[C@H](CO)[C@@H](O)[C@H]1O)c1ccccc1 (stereo in doubt; 75a)", 1.89),
]

[a] OC[C@H]1OC(n2cnc3c(NCc4cccc(F)c4)ncnc32)[C@H](O)[C@@H]1O (some centres undefined)
[b] OC[C@H]1OC(n2cnc3c(NCCc4cccc5ccccc45)ncnc32)[C@H](O)[C@@H]1O (some centres undefined)
Ask: Which shows the larger k' value: a or b ? Kindly state the label of the option you pick.
Reply: b
(b: 6.82, a: 1.9)

---

Experiment Notes: Index of hydrophobicity (k')
Type: ADME
Observed Property: k'

# Compound, k'
rows = [
    ("OC[C@H]1OC(n2cnc3c(NCCc4ccc5c(c4)OCO5)ncnc32)[C@H](O)[C@@H]1O (some centres undefined)", 2.52),
    ("COc1ccccc1CNc1ncnc2c1ncn2[C@@H]1O[C@H](CO)[C@@H](O)[C@H]1O", 2.31),
    ("OC[C@H]1OC(n2cnc3c(NCCc4cccc(F)c4)ncnc32)[C@H](O)[C@@H]1O (some centres undefined)", 2.36),
    ("OC[C@H]1OC(n2cnc3c(NCc4ccsc4)ncnc32)[C@H](O)[C@@H]1O (some centres undefined)", 1.07),
    ("COc1ccc(CCNc2ncnc3c2ncn3C2O[C@H](CO)[C@@H](O)[C@H]2O)cc1OC (some centres undefined)", 1.45),
    ("OC[C@H]1OC(n2cnc3c(Nc4cccc(F)c4)ncnc32)[C@H](O)[C@@H]1O (some centres undefined)", 2.36),
]

[A] COc1cccc(CCNc2ncnc3c2ncn3C2O[C@H](CO)[C@@H](O)[C@H]2O)c1 (some centres undefined)
[B] Cc1ccccc1Nc1ncnc2c1ncn2C1O[C@H](CO)[C@@H](O)[C@H]1O (some centres undefined)
[C] OC[C@H]1O[C@@H](n2cnc3c(NC4CCCc5ccccc5C4)ncnc32)[C@H](O)[C@@H]1O (some centres undefined)
Ask: Provide the items ranked by increasing k'. Provide the ranking by listing each label in its place in the requested order.
Reply: B, A, C
